Entries and their apparent KD of K4 kissing-loop reporter values follow.
- Tested on: K4 kissing-loop RNA reporter;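 further: bound reporter read as fluorescence of individual clusters on recovered sequencing chips by microscopy, with normalized cluster intensities fitted with a binding model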
- assay.comment: apparent KD of K4 kissing-loop reporter; higher = weaker reporter binding
- condition.label: Eterna round: R107; input ligand: tryptophan 2.4 mM

GUACGCUUCCGAGUGAUGUUCGGAAAUCGCUAGGAUAUCGCUUUUGCGAGAAGGAGCGCAAUGAGGAAACUCGUUGUUAGUGUAC [FMN A 27] yielded apparent KD of K4 kissing-loop reporter of 163 nM

AGAUCUGUAACAGAUACCAGAGGACGAUGAUCGGAUAGUGAUGUUAUCUGUCAGUCGUCGCUCCCUUGGCAGCUGUUACAGAUCA [Omei KL Theo B SS B v1] yielded apparent KD of K4 kissing-loop reporter of 157 nM

UUCUUGAUGGAAACAUCGAGGAUUACUGAUACCAGUAUCGAUAGAUACCCUUGGCAGCAGAAUCAGUGAUCACGAGUGAUGUUCG [Ex Theophylline A K4 10] yielded apparent KD of K4 kissing-loop reporter of 569 nM

AGCUAGUACGCAGGAUAUCGAACAUCAUUUAGUGAGAUCGAGUGAUGUUCGAUCACGUCUUCAGUUCGAGAAGGGCGUACUAGCA [#01 K4 FMN B Same State] yielded apparent KD of K4 kissing-loop reporter of 777 nM

AAAUUCUUUUUUUUAUAUAACAAUUCAGAAGGAGCGUGGUAGAACACAGGUAGGUCGCUGAAUAUAAGACUAGUGAUGUUAGUAA [JR_SSArginiA_Sub010] yielded apparent KD of K4 kissing-loop reporter of 153 nM

UGGACCUGACUCGAUAAGAGUCAAUGGGAUACCAGCCACGAAAGUGGCCCUUGGCAGCUCUACCAGUGAUGUUGGUCAAGGUCCU [#SwitchBubble 8 #StaticStem] yielded apparent KD of K4 kissing-loop reporter of 899 nM
